System: ZAP70 (human) (UniProt P43403)
Sequence (P43403 whole entry, looked up): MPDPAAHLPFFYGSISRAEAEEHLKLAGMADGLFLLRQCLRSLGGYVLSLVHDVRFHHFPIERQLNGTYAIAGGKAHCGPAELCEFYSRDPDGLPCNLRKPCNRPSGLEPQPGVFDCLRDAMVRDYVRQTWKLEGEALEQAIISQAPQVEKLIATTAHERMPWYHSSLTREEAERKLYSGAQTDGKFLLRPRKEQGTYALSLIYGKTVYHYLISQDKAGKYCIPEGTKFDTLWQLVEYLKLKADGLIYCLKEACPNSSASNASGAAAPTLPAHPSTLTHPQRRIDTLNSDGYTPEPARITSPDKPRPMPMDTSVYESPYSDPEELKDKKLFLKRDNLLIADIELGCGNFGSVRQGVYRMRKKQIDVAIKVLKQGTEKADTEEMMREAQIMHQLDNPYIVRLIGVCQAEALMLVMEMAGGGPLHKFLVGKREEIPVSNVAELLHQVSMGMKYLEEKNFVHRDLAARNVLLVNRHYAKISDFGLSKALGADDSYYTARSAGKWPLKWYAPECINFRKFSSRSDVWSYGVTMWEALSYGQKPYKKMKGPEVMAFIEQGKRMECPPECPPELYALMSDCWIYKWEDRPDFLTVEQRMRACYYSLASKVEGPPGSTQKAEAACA
Assay notes: KINOMEscan competition binding
Assay setup: compound 10.0 µM
For each entry below, report its kinase still bound, per cent of control value.
Output spec: scalar in %, unitless text.

Task: Record `CCOc1cc(N2CCC(O)CC2)ccc1Nc1ncc2c(n1)N(C)c1ccccc1C(=O)N2C` : what is its kinase still bound, per cent of control with ZAP70 (human) (UniProt P43403)?
Output: 100

Task: Record `C=CC(=O)Nc1ccc(C(=O)c2sc(Nc3ccc(N4CCN(C)CC4)cc3OC)nc2N)cc1` : what is its kinase still bound, per cent of control with ZAP70 (human) (UniProt P43403)?
Output: 20

Task: Record `COc1ccc(N(C(=O)Oc2cc(C(=O)Nc3cccc(C(F)(F)F)c3)ccc2C)c2ccnc(Nc3ccc(N4CCN(C)CC4)cc3)n2)c(OC)c1` : what is its kinase still bound, per cent of control with ZAP70 (human) (UniProt P43403)?
Output: 100

Task: Record `O=c1[nH]c2ccccc2n1C1CCN(Cc2ccc(-c3nc4cc5[nH]cnc5cc4nc3-c3ccccc3)cc2)CC1` : what is its kinase still bound, per cent of control with ZAP70 (human) (UniProt P43403)?
Output: 99

Task: Record `Cc1cn(-c2cc(C(=O)Nc3ccc(C)c(NC(=O)c4ccno4)c3)cc(C(F)(F)F)c2)cn1` : what is its kinase still bound, per cent of control with ZAP70 (human) (UniProt P43403)?
Output: 100

Task: Record `CNC(=O)Nc1ccc(-c2nc(N3CC4CCC(C3)O4)c3cnn(C4CCC5(CC4)OCCO5)c3n2)cc1` : what is its kinase still bound, per cent of control with ZAP70 (human) (UniProt P43403)?
Output: 83

Task: Record `COc1cc2ncnc(Nc3cccc(Cl)c3)c2cc1OC` : what is its kinase still bound, per cent of control with ZAP70 (human) (UniProt P43403)?
Output: 78

Task: Record `CC(=O)c1c(C)c2cnc(Nc3ccc(N4CCNCC4)cn3)nc2n(C2CCCC2)c1=O` : what is its kinase still bound, per cent of control with ZAP70 (human) (UniProt P43403)?
Output: 73

Task: Record `N#C/C(=C1/Nc2ccccc2S1)c1ccnc(NCCc2cccnc2)n1` : what is its kinase still bound, per cent of control with ZAP70 (human) (UniProt P43403)?
Output: 100
